Experiment: Solubility of the model drugs in PBS and in CAGE variants
Assay type: physicochemical
Settings: PBS, aqueous buffer
Property label: solubility (µg/mL)
Lab book: enter the figure in µg/mL, no units written.

The recorded solubility for entry `N#CC[C@H](C1CCCC1)n1cc(-c2ncnc3[nH]ccc23)cn1` equals 200
